Target: hGIPR (Homo sapiens, UniProt P48546)
Construct: expressed in transfected cells; host or cells: CHO cells carrying a CRE-luciferase reporter gene
Sequence (P48546 22-466): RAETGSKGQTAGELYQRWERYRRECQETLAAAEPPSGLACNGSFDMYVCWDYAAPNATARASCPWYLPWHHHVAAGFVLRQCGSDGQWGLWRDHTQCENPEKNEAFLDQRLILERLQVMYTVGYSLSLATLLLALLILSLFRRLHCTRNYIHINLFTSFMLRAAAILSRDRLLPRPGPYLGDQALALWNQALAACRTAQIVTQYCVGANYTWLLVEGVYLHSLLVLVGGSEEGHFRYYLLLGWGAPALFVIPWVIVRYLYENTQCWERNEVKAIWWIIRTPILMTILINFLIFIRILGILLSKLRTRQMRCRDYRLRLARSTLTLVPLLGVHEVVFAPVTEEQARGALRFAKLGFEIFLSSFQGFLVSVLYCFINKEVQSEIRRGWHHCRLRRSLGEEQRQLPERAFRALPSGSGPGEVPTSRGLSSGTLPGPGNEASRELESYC
Assay: hGIPR CreLuc reporter gene assay in 0.5% and 100% plasma
Assay type: cell-based
Details: CreLuc reporter gene assay, 0.5% human plasma; read-out: hGIPR 0.5% hP
pEC50: −log10 of the molar value. Starred links: 1 amine or outer side, 2 acyl side, 3 side chain; linkers in the order of their positions; H or OH if unused. Non-standard residues stand in square brackets, D forms with d. Groups on a side chain read outwards from the residue. No end group written: not given here. *: point of attachment. C20 diacid = O=C(O)CCCCCCCCCCCCCCCCCCC(=O)*; C18 diacid = O=C(O)CCCCCCCCCCCCCCCCC(=O)*; γGlu = O=C(O)[C@H](CCC(=O)[*:2])N[*:1]; εLys = N[C@@H](CCCCN[*:1])C(=O)[*:2]; Tle = CC(C)(C)[C@H](N)C(=O)O; AEEA = NCCOCCOCC(=O)O; Aib = CC(C)(N)C(=O)O; Ahx = NCCCCCC(=O)O
// reported pEC50 for each item listed

[
  {
    "Substance": "H-Y[Aib]EGTFTSDYSI[Aib]LEKQAQ[Aib]AFVEWLIK([AEEA-AEEA-γGlu-γGlu-γGlu-γGlu-C18 diacid])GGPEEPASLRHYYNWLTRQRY-NH2 [Compound 161]",
    "pEC50": 9.85
  },
  {
    "Substance": "H-Y[Aib]EGTFTSDYSI[Aib]LEKQAQ[Aib]EFVQWLIK([γGlu-γGlu-γGlu-γGlu-C18 diacid])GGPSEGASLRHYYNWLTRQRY-NH2 [Compound 202]",
    "pEC50": 9.59
  },
  {
    "Substance": "H-Y[Aib]EGTFTSDYSI[Aib]LEKQAQ[Aib]AFVEWLIK([AEEA-γGlu-γGlu-γGlu-C18 diacid])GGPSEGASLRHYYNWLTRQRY-NH2 [Compound 300]",
    "pEC50": 9.80
  },
  {
    "Substance": "H-Y[Aib]EGTFTSDYSI[Aib]LEKQAQ[Aib]AFVEWLIK([εLys-γGlu-γGlu-γGlu-γGlu-γGlu-γGlu-C20 diacid])GGPSSGASLRHYLNL[Aib]TRQRY-NH2 [Compound 17]",
    "pEC50": 9.37
  },
  {
    "Substance": "H-Y[Aib]EGTFTSDYSI[Aib]LEKQAQ[Aib]EFVEWLIK([εLys-γGlu-γGlu-γGlu-γGlu-γGlu-C18 diacid])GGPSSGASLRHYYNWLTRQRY-NH2 [Compound 159]",
    "pEC50": 9.46
  },
  {
    "Substance": "H-Y[Aib]EGTFTSDYSI[Aib]LEKQAQ[Aib]AFVEWLIK([γGlu-γGlu-γGlu-γGlu-γGlu-C18 diacid])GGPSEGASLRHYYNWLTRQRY-NH2 [Compound 292]",
    "pEC50": 9.80
  },
  {
    "Substance": "H-Y[Aib]EGTFTSDYSI[Aib]LEKQAQ[Aib]AFVQWLIK([εLys-γGlu-γGlu-γGlu-γGlu-γGlu-γGlu-C20 diacid])GGPSEGVSLRHYYNWLTRQRY-NH2 [Compound 114]",
    "pEC50": 9.57
  },
  {
    "Substance": "H-Y[Aib]EGTFTSDYSI[Aib]LEKQAQ[Aib]AFVEWLIK([εLys-γGlu-γGlu-γGlu-γGlu-γGlu-γGlu-C20 diacid])GGPSSGALLRHYYNWLTRQRY-NH2 [Compound 197]",
    "pEC50": 9.37
  },
  {
    "Substance": "H-Y[Aib]EGTFTSDYSI[Aib]LEKQAQ[Aib]AFVEWLIK([AEEA-AEEA-γGlu-γGlu-γGlu-γGlu-C18 diacid])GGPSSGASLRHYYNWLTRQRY-NH2 [Compound 254]",
    "pEC50": 9.66
  },
  {
    "Substance": "Y[Aib]EGTFTSDYSI[Aib]LEKQAQ[Aib]AFVQWLIK([AEEA-AEEA-γGlu-γGlu-γGlu-γGlu-γGlu-C18 diacid])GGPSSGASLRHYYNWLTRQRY-NH2 [Compound 167]",
    "pEC50": 9.85
  },
  {
    "Substance": "H-Y[Aib]EGTFTSDYSI[Aib]LEKQAQ[Aib]AFVEWLIK([εLys-γGlu-γGlu-γGlu-γGlu-γGlu-γGlu-C20 diacid])GGPSSGASLR[Tle]YYNWLTRQRY-NH2 [Compound 119]",
    "pEC50": 9.20
  },
  {
    "Substance": "H-Y[Aib]EGTFTSDYSI[Aib]LEKQAQ[Aib]AFVEWLIK([AEEA-AEEA-γGlu-γGlu-γGlu-γGlu-γGlu-C18 diacid])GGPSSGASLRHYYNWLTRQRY-NH2 [Compound 261]",
    "pEC50": 9.74
  },
  {
    "Substance": "H-Y[Aib]EGTFTSDYSI[Aib]LEKQAQ[Aib]AFVQWLIK([γGlu-γGlu-γGlu-γGlu-γGlu-C18 diacid])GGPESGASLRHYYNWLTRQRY-NH2 [Compound 53]",
    "pEC50": 9.89
  },
  {
    "Substance": "H-Y[Aib]EGTFTSDYSI[Aib]LEKQAQ[Aib]AFVEWLIK([AEEA-AEEA-γGlu-γGlu-γGlu-γGlu-C20 diacid])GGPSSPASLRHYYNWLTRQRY-NH2 [Compound 175]",
    "pEC50": 9.54
  },
  {
    "Substance": "Y[Aib]EGTFTSDYSI[Aib]LEKQAQ[Aib]EFVQWLIK([AEEA-AEEA-γGlu-γGlu-γGlu-C18 diacid])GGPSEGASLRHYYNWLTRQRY-NH2 [Compound 160]",
    "pEC50": 9.48
  },
  {
    "Substance": "H-Y[Aib]EGTFTSDYSI[Aib]LEKQAQ[Aib]AFVEWLIK([γGlu-γGlu-γGlu-γGlu-γGlu-C18 diacid])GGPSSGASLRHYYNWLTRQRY-NH2 [Compound 253]",
    "pEC50": 9.62
  },
  {
    "Substance": "H-Y[Aib]EGTFTSDYSI[Aib]LE[Aib]QAQ[Aib]AFVEWLIK([εLys-γGlu-γGlu-γGlu-γGlu-γGlu-γGlu-C20 diacid])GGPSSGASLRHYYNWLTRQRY-NH2 [Compound 199]",
    "pEC50": 9.03
  },
  {
    "Substance": "H-Y[Aib]EGTFTSDYSI[Aib]LEKQAQ[Aib]EFVQWLIK([εLys-γGlu-γGlu-γGlu-γGlu-γGlu-γGlu-C18 diacid])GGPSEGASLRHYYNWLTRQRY-NH2 [Compound 153]",
    "pEC50": 9.66
  },
  {
    "Substance": "H-Y[Aib]EGTFTSDYSI[Aib]LEKQAQ[Aib]AFVEWLIK([εLys-γGlu-γGlu-γGlu-γGlu-γGlu-γGlu-C20 diacid])GGPSSGLSLRHYYNWLTRQRY-NH2 [Compound 107]",
    "pEC50": 9.57
  },
  {
    "Substance": "H-Y[Aib]EGTFTSDYSI[Aib]LEKQAQ[Aib]AFVEWLIK([Ahx-γGlu-γGlu-γGlu-γGlu-γGlu-γGlu-C18 diacid])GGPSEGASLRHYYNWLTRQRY-NH2 [Compound 303]",
    "pEC50": 9.44
  }
]
